The measurements presented in this section are drawn from DBAASP.

Tested on: Acinetobacter baumannii ATCC 19606
Protocol Notes: ≥ marks a high value that may be exact or a test limit, other limits are often not marked, values filed in µg/mL are converted to µM

>  <Smiles>
C[C@H](NC(=O)[C@H](C)NC(=O)[C@@H](NC(=O)[C@H](CCCCN)NC(=O)[C@H](C)NC(=O)[C@H](CCCN=C(N)N)NC(=O)[C@H](CCCCN)NC(=O)[C@H](C)NC(=O)[C@H](C)NC(=O)CN)[C@@H](C)O)C(N)=O

>  <MIC>
> 512 µM

$$$$
>  <Smiles>
CSCC[C@H](NC(=O)[C@H](CC(C)C)NC(=O)CNC(=O)[C@H](Cc1ccccc1)NC(=O)[C@H](Cc1ccccc1)NC(=O)[C@H](CCC(N)=O)NC(=O)[C@H](CCC(N)=O)NC(=O)[C@@H]1CCCN1C(=O)[C@H](CCCCN)NC(=O)[C@@H]1CCCN1C(=O)[C@@H](N)CCCN=C(N)N)C(N)=O

>  <MIC>
> 94.9 µM

$$$$
>  <Smiles>
NC(=O)[C@H](Cc1c[nH]c2ccccc12)NC(=O)[C@H](Cc1c[nH]c2ccccc12)NC(=O)[C@H](CCCN=C(N)N)NC(=O)[C@H](Cc1c[nH]c2ccccc12)NC(=O)[C@H](Cc1c[nH]c2ccccc12)NC(=O)[C@H](Cc1c[nH]c2ccccc12)NC(=O)[C@H](CCCN=C(N)N)NC(=O)[C@H](Cc1c[nH]c2ccccc12)NC(=O)[C@@H](N)Cc1c[nH]c2ccccc12

>  <MIC>
> 128 µM

$$$$
